target: T1, mouse TfR ectodomain fused to a mouse IgG1 Fc fragment (mouse, UniProt Q62351 89-763); assay: SPR, kinetic
T1 construct: extracellular domain; not shown: mouse IgG1 Fc fragment
T1 sequence (Q62351 89-763): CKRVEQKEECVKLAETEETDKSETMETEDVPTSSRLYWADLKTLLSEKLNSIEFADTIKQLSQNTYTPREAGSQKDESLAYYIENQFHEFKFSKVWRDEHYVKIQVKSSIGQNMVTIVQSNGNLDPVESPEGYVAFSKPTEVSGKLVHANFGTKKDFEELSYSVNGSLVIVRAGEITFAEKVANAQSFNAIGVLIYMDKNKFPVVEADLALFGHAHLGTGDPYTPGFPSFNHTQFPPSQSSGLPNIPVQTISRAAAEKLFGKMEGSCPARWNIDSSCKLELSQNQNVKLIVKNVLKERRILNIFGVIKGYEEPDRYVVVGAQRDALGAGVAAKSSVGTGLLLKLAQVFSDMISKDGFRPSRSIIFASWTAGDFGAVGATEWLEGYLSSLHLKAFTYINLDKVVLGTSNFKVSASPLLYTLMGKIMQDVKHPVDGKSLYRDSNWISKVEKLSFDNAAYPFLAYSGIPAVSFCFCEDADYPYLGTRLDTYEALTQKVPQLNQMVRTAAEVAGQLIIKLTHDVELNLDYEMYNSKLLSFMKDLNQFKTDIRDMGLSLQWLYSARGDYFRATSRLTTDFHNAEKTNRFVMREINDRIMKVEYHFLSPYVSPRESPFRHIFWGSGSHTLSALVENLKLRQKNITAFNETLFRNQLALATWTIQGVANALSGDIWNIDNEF
Threshold check on koff: at or above 0.05 s⁻¹ gives YES, strictly below gives NO.

// known answers, use as guide
B8^V1 (VHH) VHH: EVQLVESGGGVVQPGGSLRLSCAADGEIFSINFMRWYRQAPGKQREWVAGFTRDGSTNYPDSAKGRFTISRDNAKNTVYLQIDSLKPEDTAVYYCYMLDTWGQGTQVTVSS : NO
B8^V3 (VHH) VHH: EVQLVESGGGVVQPGGSLRLSCAASGEIFSINFMRWYREAPGKQREWVAGFTRDGSTNYPDSAKGRFTISRDNAKNTVYLQIDSLKPEDTAVYYCYMLDTWGQGTQVTVSS : NO
VHH A15 (C5^V15) (VHH) VHH: EVQLVESGGGVVQPGGSLKLSCVASGTDFSINFIRWYRQAPGKQREFVAGFTATGNTNYADSMKGRFTISRDNTKNAVYLQIDSLKPEDTAVYYCFMLDKWGQGTQVTVSS : YES
VHH D (H3) (VHH) VHH: EVQLVESGGGEVQPGGSLKLSCVASGTDFSINFVRWYRQRPGKQREWVAGFTANGDTNYPDSMKGRFTISRDNAKNTVYLQINSLKSEDTAVYYCYMLDNWGQGTQVTVSS : NO
VHH A4 (C5^V4) (VHH) VHH: EVQLVESGGGVVQPGGSLKLSCVASGTDFSINFIRWYRQAPGKQREFVAGFTATGATNYADSMKGRFTISRDNTKNAVYLQIDSLKPEDTAVYYCYMLDKWGQGTQVTVSS : YES
VHH A2 (C5^V2) (VHH) VHH: EVQLVESGGGVVQPGGSLKLSCVASGTAFSINFIRWYRQAPGKQREFVAGFTATGNTNYADSMKGRFTISRDNTKNAVYLQIDSLKPEDTAVYYCYMLDKWGQGTQVTVSS : YES
VHH A (C5) (VHH, form with the C-terminal myc-His6 tag (x = 1), since the VHHs were detected with anti-6His or anti-cMyc; the same holds for m12 to m126) VHH: EVQLVESGGGVVQPGGSLKLSCVASGTDFSINFIRWYRQAPGKQREFVAGFTATGNTNYADSMKGRFTISRDNTKNAVYLQIDSLKPEDTAVYYCYMLDKWGQGTQVTVSS : NO
C5^V29 (VHH) VHH: EVQLVESGGGVVQPGGSLKLSCVASGADFSINFIRWYRQAPGKQREFVAGFTATGHTNYADSMKGRFTISRDNTKNAVYLQIDSLKPEDTAVYYCYMLDKWGQGTQVTVSS : YES

[Q] For this binder, is measured koff 0.05 s⁻¹ or higher? VHH A13 (C5^V13) (VHH) VHH: EVQLVESGGGVVQPGGSLKLSCVASGTDFSINFIRWYRQAPGKQREFVAGFSATGNTNYADSMKGRFTISRDNTKNAVYLQIDSLKPEDTAVYYCYMLDKWGQGTQVTVSS
[A] NO

[Q] Lookup VHH A3 (C5^V3) (VHH) VHH: EVQLVESGGGVVQPGGSLKLSCVASGTDFSINFIRWYRQAPGKQREFVAGFTAAGNTNYADSMKGRFTISRDNTKNAVYLQIDSLKPEDTAVYYCYMLDKWGQGTQVTVSS
[A] NO
